From: ChEMBL document CHEMBL4321845

- PROTOCOL NOTES: Oral bioavailability in rat at 10 mg/kg measured up to 24 hrs by LC-MS/MS analysis
- Type: ADME, organism-based
- ASSAY CONTEXT: in vivo
Entries and their bioavailability values follow.
Give just the numeric value; % need not be written.

COC(=O)N[C@H](C(=O)N1CCC[C@H]1c1nc(Cl)c(-c2ccc3c(c2)OCC(C)(C)COc2cc(-c4[nH]c([C@@H]5CCCN5C(=O)[C@@H](NC(=O)OC)C(C)C)nc4Cl)ccc2-3)[nH]1)C(C)C : 56
COC(=O)N[C@H](C(=O)N1CCC[C@H]1c1ncc(-c2ccc3c(ccc4cc(-c5cnc([C@@H]6CCCN6C(=O)[C@@H](NC(=O)OC)C(C)C)[nH]5)sc43)c2)[nH]1)C(C)C : 30
COC(=O)N[C@H](C(=O)N1CCC[C@H]1c1ncc(-c2ccc3c(c2)CCc2cc(-c4cnc([C@@H]5CCCN5C(=O)[C@@H](NC(=O)OC)C(C)C)[nH]4)sc2-3)[nH]1)C(C)C : 30
COC(=O)N[C@H](C(=O)N1CCC[C@H]1c1ncc(-c2ccc3c(c2)OCC(C)(C)COc2cc(-c4cnc([C@@H]5CCCN5C(=O)[C@@H](NC(=O)OC)C(C)C)[nH]4)ccc2-3)[nH]1)C(C)C : 47

// returns reported bioavailability for input COC(=O)N[C@H](C(=O)N1CCC[C@H]1c1ncc(-c2ccc3c(c2)OCc2cc(-c4cnc([C@@H]5CCCN5C(=O)[C@@H](NC(=O)OC)C(C)C)[nH]4)sc2-3)[nH]1)C(C)C
30
